Give TGI for every item shown.
Test system: TK-10 renal
ASSAY_TEXT: NCI tumour cell line growth inhibition, 48 h

Report TGI for COCC1N=C(c2cc(OC)c(OC)c(OC)c2-c2cc3c(cc2[C@H](C)O)OCO3)O[C@H]1c1ccccc1 (stereo partly specified)
> 100 µM

Report TGI for `Cc1ccc2nc(C(=O)O)c(=O)[nH]c2c1`
> 100 µM

Report TGI for Nc1ncnc2c1nc(Cl)n2C1OC(CO)C(O)C1O (stereo unspecified)
> 32.7 µM

Report TGI for `C[n+]1c2ccccc2c(C(=O)Nc2ccc(S(=O)(=O)Nc3ncccn3)cc2)c2ccccc21`
> 100 µM

Report TGI for `C=C(Cn1c2ccccc2c(=O)c2ccccc21)c1ccc(C(=O)Nc2ccccc2N)cc1`
> 100 µM

Report TGI for `O=C(c1ccccc1)c1cc(Cl)ccc1NCn1nnc2ccccc21`
> 100 µM

Report TGI for `Cc1ccccc1Nc1nc2ccccc2nc1NS(=O)(=O)c1ccccc1`
> 100 µM

Report TGI for `COC(=O)[C@@H]1COC(=O)N1`
> 100 µM

Report TGI for O=c1[nH]c2ccc([N+](=O)[O-])cc2nc1/C(=N/Nc1ccccc1)C(O)c1ccco1 (stereo unspecified)
> 100 µM

Report TGI for `CC(C)[C@@H]1NC(=O)[C@@H]2N=C(O[C@H]2C)[C@H](C(C)C)NC(=O)C2N=C1O[C@H]2C`
> 100 µM

Report TGI for `O=c1nc2[nH]c3c(-c4n[nH]c(=O)[nH]c4=O)cccc3c2n[nH]1`
> 100 µM

Report TGI for `O=C(Oc1ccc2c(c1)CN(Cc1ccccc1)CO2)c1ccccc1`
29.8 µM

Report TGI for CC(=O)NN(c1ccccc1)C1CCN(c2ccccc2)N1C(C)=O (stereo unspecified)
> 10 µM

Report TGI for CC(=O)[C@]1(O)Cc2c(O)c3c(c(O)c2[C@@H](OC2CC(N)C(O)C(C)O2)C1)C(=O)c1c(OCc2ccccc2)cccc1C3=O (stereo partly specified)
25 µM

Report TGI for `CCN(CC)CCNc1ccc([N+](=O)[O-])c2sc3cc(Cl)ccc3c(=O)c12`
> 100 µM

Report TGI for `Cc1ccc(NCCN(C)C)c2c(=O)c3cc(O)ccc3sc12`
33.9 µM

Report TGI for `C[n+]1c(-c2ccc(/C=N/NC(=O)C(=O)N/N=C/c3ccc(-c4cn5ccccc5[n+]4C)cc3)cc2)cn2ccccc21`
> 100 µM

Report TGI for `C[C@]12CCC3=NCCN3C1=CC[C@@H]1[C@@H]2CC[C@@]2(C)[C@H]1CC[C@]2(C)O`
> 100 µM

Report TGI for NC(=O)c1ncn(C2OC(CO)C(O)C2O)c1N (stereo unspecified)
> 100 µM

Report TGI for `CC(C)=CC(=O)c1c(C(=O)O)nc2ccccc2[n+]1[O-]`
> 100 µM

Report TGI for `Cn1c(=O)c2c(nc(N/N=C3/SCC(=O)N3Cc3ccccc3)n2C)n(C)c1=O`
> 100 µM

Report TGI for CCCCCCCCCCCCCCC(C)CCC(=O)O (stereo unspecified)
> 100 µM

Report TGI for `COC(=O)c1ccc2[nH]c(O)c(C(=Nc3ccc(N(C)C(=O)CN4CCN(C)CC4)cc3)c3ccccc3)c2c1`
17 µM

Report TGI for CCCCCCCCCCCCCCCC(=O)OCC1OC(n2cc(F)c(=O)[nH]c2=O)C(NC(=O)N(CCCl)N=O)C(O)C1O (stereo unspecified)
26.1 µM

Report TGI for `N#CCCN(CCC#N)c1ccc(C=Nc2ccc(F)cc2)cc1`
> 92.6 µM

Report TGI for O=C1CCS/C(=N/S(=O)(=O)c2ccc(N3N=C4c5ccccc5CC4C3c3cccs3)cc2)N1Cc1ccccc1 (stereo unspecified)
37.6 µM

Report TGI for `O=C1c2ccccc2C(=O)c2sc(Nc3cc(Cl)ccc3Cl)nc21`
29.4 µM

Report TGI for `CC(=O)[O-].[Mn+3].[O-]c1ccc(Cl)cc1C=NCCN=Cc1cc(Cl)ccc1[O-]`
> 100 µM

Report TGI for `COc1cc(CCc2ccc(OC(C)=O)cc2)cc(OC)c1OC`
> 100 µM

Report TGI for `Oc1ccc(SCc2cc(O)ccc2O)cc1`
33.9 µM

Report TGI for `Cc1ccc(S(=O)(=O)N2CCC(C(=O)O)(c3ccccc3)CC2)cc1`
> 100 µM

====

Test system: NCI-H522 lung
ASSAY_TEXT: NCI tumour cell line growth inhibition, 48 h
Give GI50 for every item shown.

Answer with GI50 of `OCCCCC#Cc1ccccc1C#Cc1ccc(C(F)(F)F)cc1` measured for NCI-H522 lung.
16400 nM

Answer with GI50 of `CC1=C(CNO)C2=C(C)C3(CC3)[C@@](C)(O)C(=O)C2=C1` measured for NCI-H522 lung.
679 nM

Answer with GI50 of `CC(=O)[O-].[Mn+3].[O-]c1ccc(Cl)cc1C=NCCN=Cc1cc(Cl)ccc1[O-]` measured for NCI-H522 lung.
> 100000 nM

Answer with GI50 of `COC(=O)[C@H](Cc1cn(C)cn1)NC(=O)[C@@H](NC(=O)Nc1cc(C(F)(F)F)cc(C(F)(F)F)c1)C(C)C` measured for NCI-H522 lung.
1710 nM

Answer with GI50 of `CC1(C)CC[C@]2(C(=O)O)CC[C@]3(C)C(=CC[C@@H]4[C@@]5(C)C/C(=C/c6ccco6)C(=O)C(C)(C)[C@@H]5CC[C@]43C)[C@@H]2C1` measured for NCI-H522 lung.
3220 nM

Answer with GI50 of `N#CC(NC(=O)CCl)=C(Cl)Cl` measured for NCI-H522 lung.
437 nM

====

Test system: SK-MEL-28 melanoma
ASSAY_TEXT: NCI tumour cell line growth inhibition, 48 h
REPORTED_ENDPOINT: TGI

Answer with TGI of `Cn1c(=O)c2c(nc(N/N=C3/SCC(=O)N3Cc3ccccc3)n2C)n(C)c1=O` measured for SK-MEL-28 melanoma.
> 100 µM

Answer with TGI of N#CC(NNC(=O)c1ccccc1O)c1c(O)ccc2ccccc12 (stereo not drawn) measured for SK-MEL-28 melanoma.
> 100 µM

Answer with TGI of `O=C(O)/C=C/c1ccncc1` measured for SK-MEL-28 melanoma.
> 100 µM

====

Give TGI for every item shown.
System: EKVX NSCLC
ASSAY_TEXT: NCI tumour cell line growth inhibition, 48 h

Report TGI for `Cc1ccc2nc(C(=O)O)c(=O)[nH]c2c1`
> 100 µM

Report TGI for O=C(O)C1(C(O)c2ccccc2)SCCCS1 (stereo not given)
> 10 µM

Report TGI for `C=CCN=C(N/N=C/c1ccc([N+](=O)[O-])o1)NS(=O)(=O)c1cc(C(=O)Nc2ccccc2)c(Cl)cc1SCC(N)=O`
> 100 µM

Report TGI for `O=C(C(=O)c1cc(Br)ccc1O)c1cc(Br)ccc1O`
7.52 µM

Report TGI for `CC(C)[C@@H]1NC(=O)[C@@H]2N=C(O[C@H]2C)[C@H](C(C)C)NC(=O)C2N=C1O[C@H]2C`
> 100 µM

====

Test system: NCI-H522 lung
ASSAY_TEXT: NCI tumour cell line growth inhibition, 48 h
Give TGI for every item shown.

Report TGI for Nc1ncnc2c1nc(Cl)n2C1OC(CO)C(O)C1O (centres undefined)
> 95.3 µM

Report TGI for `O=c1cccccc1[O-].O=c1cccccc1[O-].O=c1cccccc1[O-].[Sm+3]`
> 100 µM

Report TGI for COC(=O)[C@]1(C)CCC[C@]2(C)[C@@H]1CCC13C[C@@H](C=CO1)[C@@H](C)CC32O (some centres undefined)
> 100 µM

Report TGI for `COc1ccc2c(c1)[n+](=O)c(C(C)=O)c(C)n2[O-]`
> 100 µM

====

Tested on: RPMI-8226 leukemia
ASSAY_TEXT: NCI tumour cell line growth inhibition, 48 h
REPORTED_ENDPOINT: TGI

Report TGI for `C=CCOC(=O)N1c2ccc(O)cc2[C@@]23O[C@@]24[C@@H]1C#C/C=C\C#C[C@]3(O)C(=O)C[C@@H]4C`
> 100 µM

Report TGI for `c1cc2c(cc1[C@@H]1OC[C@@H]3[C@H]1CO[C@H]3c1ccc3c(c1)OCO3)OCO2`
> 100 µM

Report TGI for CC(C)=CCCC1(C)C2COC(=O)C21 (stereo not drawn)
> 100 µM

Report TGI for `Cc1ccccc1Nc1nc2ccccc2nc1NS(=O)(=O)c1ccccc1`
> 100 µM

Report TGI for NC(=O)c1ncn(C2OC(CO)C(O)C2O)c1N (stereo not drawn)
> 100 µM

Report TGI for `CN(C)C(=O)Oc1ccc(C(=S)Nc2ccccc2)cc1`
> 100 µM

Report TGI for `COc1cc(N(CCC#N)CCC#N)ccc1/C(N=Nc1ccc(C(=O)O)cc1)=N/NC(=O)c1cc(Br)ccc1O`
> 150 µg/mL

Report TGI for `O=C1CNN=C(Cn2nc(-c3ccccc3)c3ccccc3c2=O)N1`
> 100 µM

Report TGI for COC1OC(C(=O)O)C2OC(C)(C)OC12 (stereo not drawn)
> 100 µM

Report TGI for CC(NNC(=O)c1ccncc1)c1ccc(Cl)cc1Cl (stereo not drawn)
> 100 µM

Report TGI for NC(N)=NCCCC(NC(=O)c1c2ccccc2nc2ccccc12)C(=O)O (stereo not drawn)
> 100 µM

Report TGI for CC(=O)OCC1OC(n2c(=S)n(-c3ccccc3)c(=O)c3cc(Br)cc(Br)c32)C(OC(C)=O)C(OC(C)=O)C1OC(C)=O (stereo not drawn)
> 100 µM

Report TGI for `O=C(O)/C=C/c1ccncc1`
> 100 µM

Report TGI for COc1ccc(CC[N+]2(C)COc3cc4oc(=O)cc(C)c4cc3C2)cc1OC (stereo not drawn)
> 100 µM

Report TGI for `N/C(=N\C(N)=N\c1nc2ccccc2s1)c1cnccn1`
> 100 µM

Report TGI for CCCCCCCCCCCCOC1C(C(CC(=O)N2CCN(Cc3ccc4c(c3)OCO4)CC2)NS(=O)(=O)c2cc(Cl)cc(Cl)c2)OC2OC(C)(C)OC21 (stereo not drawn)
> 47.5 µM

Report TGI for `O=c1nc2[nH]c3c(-c4n[nH]c(=O)[nH]c4=O)cccc3c2n[nH]1`
> 100 µM

Report TGI for NC(Cc1ccccc1CP(=O)(O)O)C(=O)O (stereo not drawn)
> 100 µM

Report TGI for `NC(N)=N/N=C(/c1ccccc1)c1ccccc1F`
> 82.1 µM

Report TGI for Nc1ncc(C2[C@H](CNC(=O)c3cc(Br)c[nH]3)C(CNC(=O)c3cc(Br)c[nH]3)[C@@H]2c2cnc(N)[nH]2)[nH]1 (stereo partly drawn)
> 50 µM

Report TGI for `Cc1ccc(C2=C(Cl)C(=O)C(c3ccc(C)cc3)=C(Cl)C2=O)cc1`
> 100 µM

Report TGI for CCC1CN2CCc3c([nH]c4ccccc34)[C@@](C(=O)OC)(c3cc4c(cc3OC)N(C)C3C(O)(C(=O)OC)C(C(=O)OC)C5(CC)C=CCN6CCC43C65)C[C@@H](C2)[C@@H]1C(C)(C)C (stereo partly drawn)
> 4.43 µM

Report TGI for `O=C(/C=C(\[O-])c1ccccc1)CCCCCCC(=O)/C=C(\[O-])c1ccccc1.O=C(/C=C(\[O-])c1ccccc1)CCCCCCC(=O)/C=C(\[O-])c1ccccc1.O=C(/C=C(\[O-])c1ccccc1)CCCCCCC(=O)/C=C(\[O-])c1ccccc1.[Nd+3].[Nd+3]`
> 50 µM

Origin of measurements: PubChem BioAssay (NCI)
